Experiment: Resistance index, ratio of EC50 for antiviral activity against DRV-resistant HIV-1 to EC50 for antiviral activity against wild type HIV-1 NL4-3
Format: functional, Human immunodeficiency virus 1
Quick reference: Ratio EC50 of the listed items.
Give a plain numeric answer without units written out.

1) COc1ccc(S(=O)(=O)N(CC(C)C)C[C@@H](O)[C@H](Cc2ccccc2)NC(=O)Cc2cccc(O)c2)cn1	5.26
2) CSc1ccc(S(=O)(=O)N(CC(C)C)C[C@@H](O)[C@H](Cc2ccccc2)NC(=O)Cc2cccc(O)c2)cc1	2.51
3) COc1ccc(S(=O)(=O)N(CC(C)C)C[C@@H](O)[C@H](Cc2ccccc2)NC(=O)Cc2cccc(O)c2)cc1	8.43

Now for another entry.
## Input So what does the record say about Ratio EC50 for COc1ccc(S(=O)(=O)N(CC(C)C)C[C@@H](O)[C@H](Cc2ccccc2)NC(=O)Cc2ccc(O)c(O)c2)cc1 ?
## Output 12.5

----------
Consider the following molecules and their measured pIC50 readings.
Target: Human immunodeficiency virus type 1 protease (Human immunodeficiency virus 1, UniProt Q72874)
Interpret pIC50 as the negative base-10 log of the concentration measured in mol/L.

1) CC(C)CN(C[C@@H](O)[C@H](Cc1ccccc1)NC(=O)Cc1ccc(O)c(O)c1)S(=O)(=O)c1ccc(N)cc1	8.02
2) COc1ccc(CC(=O)N[C@@H](Cc2ccccc2)[C@H](O)CN(CC(C)C)S(=O)(=O)c2ccc(SC)cc2)cc1OC	6.77
3) COc1ccc(S(=O)(=O)N(CC(C)C)C[C@@H](O)[C@H](Cc2ccccc2)NC(=O)Cc2cccc(OC)c2)cc1	8.16
4) CSc1ccc(S(=O)(=O)N(CC(C)C)C[C@@H](O)[C@H](Cc2ccccc2)NC(=O)Cc2cccc(O)c2)cc1	8.66
5) COc1ccc(S(=O)(=O)N(CC(C)C)C[C@@H](O)[C@H](Cc2ccccc2)NC(=O)Cc2ccc(OC)c(O)c2)cc1	8.40

## Input If you can, please state the reported pIC50 value of COc1ccc(S(=O)(=O)N(CC(C)C)C[C@@H](O)[C@H](Cc2ccccc2)NC(=O)Cc2cccc(O)c2)cn1 .
## Output 8.92

## Input Okay, and CC(C)CN(C[C@@H](O)[C@H](Cc1ccccc1)NC(=O)Cc1ccc(O)cc1)S(=O)(=O)c1ccc(N)cc1 ?
## Output 7.49

----------
Target: Human immunodeficiency virus type 1 protease (Human immunodeficiency virus 1)
I'd appreciate it if you could label each record using IC50 and these ranges: bucket 1: < 6 nM; bucket 2: ≥ 6 nM and < 50 nM; bucket 3: ≥ 50 nM

Take a look at these entries with their results.
1) COc1cccc(CC(=O)N[C@@H](Cc2ccccc2)[C@H](O)CN(CC(C)C)S(=O)(=O)c2ccc(SC)cc2)c1	bucket 2
2) COc1ccc(S(=O)(=O)N(CC(C)C)C[C@@H](O)[C@H](Cc2ccccc2)NC(=O)Cc2ccc(O)cc2)cc1	bucket 1
3) COc1ccc(S(=O)(=O)N(CC(C)C)C[C@@H](O)[C@H](Cc2ccccc2)NC(=O)Cc2cccc(O)c2)cc1	bucket 1
4) CC(C)CN(C[C@@H](O)[C@H](Cc1ccccc1)NC(=O)Cc1cccc(O)c1)S(=O)(=O)c1ccc(N)cc1	bucket 1
5) COc1ccc(CC(=O)N[C@@H](Cc2ccccc2)[C@H](O)CN(CC(C)C)S(=O)(=O)c2ccc(N)cc2)cc1	bucket 3

## Input Hi there! Could you help me figure out the category for COc1cc(CC(=O)N[C@@H](Cc2ccccc2)[C@H](O)CN(CC(C)C)S(=O)(=O)c2ccc(N)cc2)ccc1O please?
## Output bucket 3

## Input Also, COc1cc(CC(=O)N[C@@H](Cc2ccccc2)[C@H](O)CN(CC(C)C)S(=O)(=O)c2ccc(SC)cc2)ccc1O please.
## Output bucket 3

## Input Next up: COc1cccc(CC(=O)N[C@@H](Cc2ccccc2)[C@H](O)CN(CC(C)C)S(=O)(=O)c2ccc(N)cc2)c1
## Output bucket 2

## Input Also COc1ccc(S(=O)(=O)N(CC(C)C)C[C@@H](O)[C@H](Cc2ccccc2)NC(=O)Cc2ccc(O)c(O)c2)cn1 , if possible.
## Output bucket 1
